Examples of binders with documented MFI at 60 nM follow.
Biological target: T1, Cyno CD33 full length (cynomolgus monkey)
T1 construct: also called cyCD33
Test: flow cytometry on HEK293F cells expressing cyno CD33
Please reply with the bare figure in MFI and do not write the unit itself.

Field: example entries. Status: answers known.
Binder	Quantitative readout
C33B909 (antibody, V domains shown, OMNIMouse-derived anti-CD33 mAb; same V regions as C33B901; The OMNIMouse mAbs were cloned into both IgG1 and IgG4 PAA; also called C33H249/C33L115) VH: EVQLVESGGGLVQPGRSLRLSCVASGFTFDDYAIHWVRQAPGKGLEWVSGLSWNGGNIGYADSVKGRFTISRDNAKNSLYLQMNSLKTEDTAFYYCTKDTPYGDYFDYWGQGTLVTVSS VL: DIQMTQSPSSVWASVGDRVTITCRASQGISSWLAWYQQQPGKAPNLLIYRSSSLQSGVPSRFSGSGSGTDFTLTISSLQPEDFATYYCQQDNSFPYTFGQGTKLEIK	180
C33B914 (antibody, V domains shown, OMNIMouse-derived anti-CD33 mAb; same V regions as C33B906; also called C33H254/C33L120; C33F552) VH: QVQLVESGGGVVQPGRSLRLSCAASGFTFSYYGMHWVRQAPDKGLEWVAVIWFDGNNKYYADSVKGRFTISRDNSKNTLYLQMNSLRAEDTAVYYCARDRELLFDYWGQGTLVTVSS VL: SYELTQPPSVSVSPGQTASITCSGDELGDMYACWYQQKPGQSPLVVIYQDSKRPSGIPERFSGSNSGNTATLTISGTQAMDEAAYYCQTWDTRIAVFGGGTNLTVL	45000

Consider the additional binder presented here.
Input C33B915 (antibody, V domains shown, OMNIMouse-derived anti-CD33 mAb; same V regions as C33B907; also called C33H255/C33L121; C33F553) VH: EVQLVESGGGLVQPGRSLRLSCAASGFTFDDYAMHWVRQVPGEGLEWVSGISWNGGDMVYADSVKGRFTISRDNAKNSLYLQMNSLRPEDTALYYCVKDMPYFDFLTGSDYYYYGMDVWGQGTTVTVSS VL: SYELTQPPSVSVSPGQTASITCSGDNLGNEHVCWYHQKPGQSPVLVIYQNNKRPSGIPERFSGSNSGNTATLSISGTQATDEADYYCQAWDSTTAVFGGGTKLTVL . Output MFI at 60 nM: 37500

Source: patent US20230322924A1
